test: Pharmacokinetics in patient plasma (LC-MS); type: in vivo, human; conditions: dose 800 mg, across all three studies
measurementType: Mean AUC (µM·h)
// units = µM·h; emit number, no label

Fill in: Mean AUC of C[C@]12CC[C@H](O)CC1=CC[C@@H]1[C@@H]2CC[C@]2(C)C(c3cccnc3)=CC[C@@H]12 is ___
5.6

----------
assay: Pharmacokinetics in patient plasma (LC-MS); format: in vivo, human; details: dose 200 mg, across all three studies
measurementType: Mean AUC (µM·h)
// units = µM·h; emit number, no label

Fill in: Mean AUC of C[C@]12CC[C@H](O)CC1=CC[C@@H]1[C@@H]2CC[C@]2(C)C(c3cccnc3)=CC[C@@H]12 is ___
0.31
